biological target: glucagon receptor (UniProt P47871 26-477, limits assumed); assay: cell-based or functional assay
Sequence (P47871 26-477 limits assumed): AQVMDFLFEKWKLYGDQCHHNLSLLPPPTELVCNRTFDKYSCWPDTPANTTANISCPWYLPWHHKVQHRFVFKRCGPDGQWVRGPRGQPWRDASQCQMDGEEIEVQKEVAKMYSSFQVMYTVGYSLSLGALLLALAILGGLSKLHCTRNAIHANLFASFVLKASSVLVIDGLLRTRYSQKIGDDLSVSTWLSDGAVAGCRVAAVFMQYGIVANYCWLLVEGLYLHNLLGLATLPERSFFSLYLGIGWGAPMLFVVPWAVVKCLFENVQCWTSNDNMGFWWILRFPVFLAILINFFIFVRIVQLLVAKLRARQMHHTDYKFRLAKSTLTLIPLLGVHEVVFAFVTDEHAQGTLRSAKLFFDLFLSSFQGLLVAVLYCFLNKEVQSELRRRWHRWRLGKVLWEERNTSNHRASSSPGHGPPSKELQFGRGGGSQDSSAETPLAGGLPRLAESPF
Ends that are not written are not given here.
metric: cAMP pA2
One number for each entry.

Completed entries (count: 3):
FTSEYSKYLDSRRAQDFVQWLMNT-NH2 (also called [E^9]Glucagon(aa6-29)-NH2; peptide no) [[Glu^9]Glucagon(aa6-29)-NH2] : 7.16
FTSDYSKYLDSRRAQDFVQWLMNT-NH2 (also called peptide no) [Glucagon(aa6-29)-NH2] : 6.94
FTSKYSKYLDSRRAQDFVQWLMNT-NH2 (also called [K^9]Glucagon(aa6-29)-NH2; peptide no) [[Lys^9]Glucagon(aa6-29)-NH2] : 6.58

Read the next record carefully.
The binder GTFTSEYSKYLDSRRAQDFVQWLMNT-NH2 (also called peptide no) [[Glu^9]Glucagon(aa4-29)-NH2] showed cAMP pA2 equal to 7.05
